Data export: Ki values recorded with human A2A receptor (Homo sapiens (Human), UniProt P29274).
Sequence (P29274 whole entry): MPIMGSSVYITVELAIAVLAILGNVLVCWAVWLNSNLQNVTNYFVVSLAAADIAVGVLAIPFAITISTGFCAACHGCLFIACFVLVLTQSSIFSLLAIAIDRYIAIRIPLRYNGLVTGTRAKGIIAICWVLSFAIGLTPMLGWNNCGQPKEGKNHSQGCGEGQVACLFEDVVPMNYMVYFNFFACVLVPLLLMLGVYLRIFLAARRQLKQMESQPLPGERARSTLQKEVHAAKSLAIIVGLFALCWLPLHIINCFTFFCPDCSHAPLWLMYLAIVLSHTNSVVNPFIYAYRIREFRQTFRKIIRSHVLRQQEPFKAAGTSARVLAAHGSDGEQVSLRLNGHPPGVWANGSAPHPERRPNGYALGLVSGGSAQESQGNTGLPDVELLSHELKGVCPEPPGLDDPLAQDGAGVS
Respond numerically; units are nM and should not be typed.

# input Using the record for `Cc1nc2c(o1)CN(CCc1nc3c4ccc5c(c4nc(N)n3n1)OC(F)(F)O5)CC2` , report its Ki.
# output 1.5

# input Using the record for `Nc1nc2c3c(ccc2c2nc(CN4CCN(c5cccc(F)c5)CC45CC5)nn12)OC(F)(F)O3` , report its Ki.
# output 8.7

# input Using the record for CC1(F)CCCN(CCc2nc3c4ccc5c(c4nc(N)n3n2)OC(F)(F)O5)C1 (single isomer, unassigned) , report its Ki.
# output 7.7

# input Using the record for `Nc1nc2c3c(ccc2c2nc(CCN4CCC5(CCNCC5)CC4)nn12)OC(F)(F)O3` , report its Ki.
# output 320

# input Using the record for `Nc1nc2c3c(ccc2c2nc(CN4CCN(c5ccc(F)cn5)CC45CC5)nn12)OC(F)(F)O3` , report its Ki.
# output 3.4

# input Using the record for `Nc1nc2c3c(ccc2c2nc(CN4CC(O)(C(F)(F)F)C4)nn12)OC(F)(F)O3` , report its Ki.
# output 2.8

# input Using the record for `Nc1nc2c3c(ccc2c2nc(CCN4CC(F)(C(F)(F)F)C4)nn12)OC(F)(F)O3` , report its Ki.
# output 3.4

# input Using the record for CC(Cc1nc2c3ccc4c(c3nc(N)n2n1)OC(F)(F)O4)N1CCCC(F)(F)C1 (single isomer, unassigned) [Example 95] , report its Ki.
# output 4.3

---

- Target Of Assay: human A2A receptor (Homo sapiens (Human), UniProt P29274)
So I've got a bunch of compounds here, and I need their Ki values.
Respond numerically; units are nM and should not be typed.

# input Using the record for CC(Cc1nc2c3ccc4c(c3nc(N)n2n1)OC(F)(F)O4)N1CC(F)(F)C1 (single isomer, unassigned) [Example 94] , report its Ki.
# output 4.1

# input Using the record for CN1CCN(CCc2nc3c4ccc5c(c4nc(N)n3n2)OC(F)(F)O5)CC1=O [Example 47] , report its Ki.
# output 1.7

# input Using the record for Nc1nc2c3c(ccc2c2nc(CN4CC(F)(F)C4)nn12)OC(F)(F)O3 [Example 109] , report its Ki.
# output 5.9

# input Using the record for CC1N(CCc2nc3c4ccc5c(c4nc(N)n3n2)OC(F)(F)O5)CCCC1(F)F (single isomer, unassigned) [Example 68] , report its Ki.
# output 1.2

# input Using the record for C[C@@H]1C[C@H](F)CN1CCc1nc2c3ccc4c(c3nc(N)n2n1)OC(F)(F)O4 [Example 22] , report its Ki.
# output 1.5

# input Using the record for Nc1nc2c3c(ccc2c2nc(CCN4CCC(F)(F)CC4)nn12)OC(F)(F)O3 [Example 30] , report its Ki.
# output 2.6

# input Using the record for Nc1nc2c3c(ccc2c2nc(CCN4CCN(CC5CC5)C(=O)C4)nn12)OC(F)(F)O3 [Example 48] , report its Ki.
# output 0.8

# input Using the record for CC(c1nc2c3ccc4c(c3nc(N)n2n1)OC(F)(F)O4)N1CCCC(F)(F)C1 (single isomer, unassigned) [Example 135] , report its Ki.
# output 89

# input Using the record for Nc1nc2c3c(ccc2c2nc(CN4CCC(F)(F)C4)nn12)OC(F)(F)O3 [Example 116] , report its Ki.
# output 1.8

# input Using the record for CC(c1nc2c3ccc4c(c3nc(N)n2n1)OC(F)(F)O4)N1CCCC(F)(F)C1 (single isomer, unassigned) [Example 136] , report its Ki.
# output 25

# input Using the record for Nc1nc2c3c(ccc2c2nc(C4CCCN(c5cccc(F)c5)C4)nn12)OC(F)(F)O3 (single isomer, unassigned) [Example 143] , report its Ki.
# output 59

# input Using the record for Nc1nc2c3c(ccc2c2nc(CCN4CC5CC4C(F)(F)C5)nn12)OC(F)(F)O3 (single isomer, unassigned) [Example 67] , report its Ki.
# output 3.5

# input Using the record for CCc1nnc2n1CCN(Cc1nc3c4ccc5c(c4nc(N)n3n1)OC(F)(F)O5)C2 [Example 122] , report its Ki.
# output 110

# input Using the record for Cc1ncc(N2CCN(Cc3nc4c5ccc6c(c5nc(N)n4n3)OC(F)(F)O6)[C@H](C)C2)s1 [Example 107] , report its Ki.
# output 4

# input Using the record for CC1CCN(CCc2nc3c4ccc5c(c4nc(N)n3n2)OC(F)(F)O5)CC1 [Example 38] , report its Ki.
# output 27

---

Assay Endpoint: Ki (nM)
Respond numerically; units are nM and should not be typed.

# input Hello, I am looking for reported Ki with human A2A receptor (Homo sapiens (Human), UniProt P29274) for C[C@@H]1CN(c2nsnc2Cl)CCN1CCc1nc2c3ccc4c(c3nc(N)n2n1)OC(F)(F)O4 [Example 46] . Could you help?
# output 1.8

# input Hello, I am looking for reported Ki with human A2A receptor (Homo sapiens (Human), UniProt P29274) for C[C@@H](Cc1nc2c3ccc4c(c3nc(N)n2n1)OC(F)(F)O4)N1CCCC(C)(F)C1 (single isomer, unassigned) [Example 90] . Could you help?
# output 12

# input Hello, I am looking for reported Ki with human A2A receptor (Homo sapiens (Human), UniProt P29274) for CCC1(F)CN(CCc2nc3c4ccc5c(c4nc(N)n3n2)OC(F)(F)O5)C1 [Example 17] . Could you help?
# output 3.5

# input Hello, I am looking for reported Ki with human A2A receptor (Homo sapiens (Human), UniProt P29274) for Nc1nc2c3c(ccc2c2nc(Cc4cccnc4N4CC[C@@H](c5ccc(F)cc5)C4)nn12)OC(F)(F)O3 [Example 4] . Could you help?
# output 8.3

# input Hello, I am looking for reported Ki with human A2A receptor (Homo sapiens (Human), UniProt P29274) for C[C@@H](Cc1nc2c3ccc4c(c3nc(N)n2n1)OC(F)(F)O4)N1CCCC(C)(F)C1 (single isomer, unassigned) [Example 89] . Could you help?
# output 6.1

# input Hello, I am looking for reported Ki with human A2A receptor (Homo sapiens (Human), UniProt P29274) for Nc1nc2c3c(ccc2c2nc(CN4Cc5cnc(C(F)(F)F)nc5C4)nn12)OC(F)(F)O3 [Example 121] . Could you help?
# output 16

# input Hello, I am looking for reported Ki with human A2A receptor (Homo sapiens (Human), UniProt P29274) for Nc1nc2c3c(ccc2c2ncnn12)OC(F)(F)O3 [Example 1] . Could you help?
# output 12

# input Hello, I am looking for reported Ki with human A2A receptor (Homo sapiens (Human), UniProt P29274) for C[C@@H]1CC[C@@H](C)N1CCc1nc2c3ccc4c(c3nc(N)n2n1)OC(F)(F)O4 [Example 34] . Could you help?
# output 11

# input Hello, I am looking for reported Ki with human A2A receptor (Homo sapiens (Human), UniProt P29274) for Nc1nc2c3c(ccc2c2nc(CCNC4(C(F)(F)F)CCC4)nn12)OC(F)(F)O3 [Example 58] . Could you help?
# output 1

# input Hello, I am looking for reported Ki with human A2A receptor (Homo sapiens (Human), UniProt P29274) for C[C@H](Cc1nc2c3ccc4c(c3nc(N)n2n1)OC(F)(F)O4)N1CCc2cccnc2C1 [Example 78] . Could you help?
# output 1.4

# input Hello, I am looking for reported Ki with human A2A receptor (Homo sapiens (Human), UniProt P29274) for Nc1nc2c3c(ccc2c2nc(CCN4Cc5cccnc5C4)nn12)OC(F)(F)O3 [Example 6] . Could you help?
# output 6.5

# input Hello, I am looking for reported Ki with human A2A receptor (Homo sapiens (Human), UniProt P29274) for Nc1nc2c3c(ccc2c2nc(CCN4Cc5ccncc5C4)nn12)OC(F)(F)O3 [Example 11] . Could you help?
# output 2.1

# input Hello, I am looking for reported Ki with human A2A receptor (Homo sapiens (Human), UniProt P29274) for C[C@H](Cc1nc2c3ccc4c(c3nc(N)n2n1)OC(F)(F)O4)N1CCc2ccncc21 [Example 76] . Could you help?
# output 1.8

# input Hello, I am looking for reported Ki with human A2A receptor (Homo sapiens (Human), UniProt P29274) for C[C@@H]1CN(CCc2nc3c4ccc5c(c4nc(N)n3n2)OC(F)(F)O5)C[C@@H](C)O1 [Example 63] . Could you help?
# output 36

# input Hello, I am looking for reported Ki with human A2A receptor (Homo sapiens (Human), UniProt P29274) for CCc1nnc2n1CCN(CCc1nc3c4ccc5c(c4nc(N)n3n1)OC(F)(F)O5)C2 [Example 10] . Could you help?
# output 1.6

# input Hello, I am looking for reported Ki with human A2A receptor (Homo sapiens (Human), UniProt P29274) for C[C@@H]1CN(c2nsnc2Cl)CCN1Cc1nc2c3ccc4c(c3nc(N)n2n1)OC(F)(F)O4 [Example 108] . Could you help?
# output 7.5
